composite z-score reference
EXPERIMENTAL TARGET: Torsin-1A-interacting protein 1 (Homo sapiens) (UniProt Q5JTV8)
Sequence (Q5JTV8 whole entry, looked up): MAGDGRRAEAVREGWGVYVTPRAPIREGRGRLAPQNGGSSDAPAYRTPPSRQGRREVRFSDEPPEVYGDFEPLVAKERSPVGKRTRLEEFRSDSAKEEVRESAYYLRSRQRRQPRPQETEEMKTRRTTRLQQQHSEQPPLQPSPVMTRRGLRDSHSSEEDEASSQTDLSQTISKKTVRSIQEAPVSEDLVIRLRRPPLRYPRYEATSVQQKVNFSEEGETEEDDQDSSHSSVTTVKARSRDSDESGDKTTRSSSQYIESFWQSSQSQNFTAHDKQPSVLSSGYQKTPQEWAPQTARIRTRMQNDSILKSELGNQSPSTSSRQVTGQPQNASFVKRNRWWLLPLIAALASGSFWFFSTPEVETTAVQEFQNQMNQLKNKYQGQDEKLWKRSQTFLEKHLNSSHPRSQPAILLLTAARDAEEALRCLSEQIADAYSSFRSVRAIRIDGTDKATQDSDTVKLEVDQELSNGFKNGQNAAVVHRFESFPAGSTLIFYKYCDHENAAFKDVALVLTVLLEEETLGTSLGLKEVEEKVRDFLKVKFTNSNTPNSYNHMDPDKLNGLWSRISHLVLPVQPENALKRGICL
EXPERIMENT DESCRIPTION: compound microarray binding of lysate hLAP1 – cell lysate, small-molecule microarray, COS7 lysate, 635/667 nm fluorescence, primary screen (AID 1116)
ASSAY CONDITIONS: 635 nm fluorescence, higher = more signal
Kindly provide the number alone.

Look over these answered cases.
| MOLECULE | EXPERIMENTAL TARGET | composite z-score |
| --- | --- | --- |
| NCCCCCCNC(=O)[C@H]1C[C@H]2C(=O)N[C@@H](Cc3ccccc3)C(=O)N2[C@H]1c1cccc(OCCO)c1 | Torsin-1A-interacting protein 1 (Homo sapiens) (UniProt Q5JTV8) | 1.6 |
| COC(=O)[C@@]1(Cc2ccccc2)[C@H]2c3cc(C(=O)N4CCCC4)n(Cc4c(CO)[nH]cc(C)c4=O)c3C[C@H]2CN1C(=O)c1ccccc1 | Torsin-1A-interacting protein 1 (Homo sapiens) (UniProt Q5JTV8) | 2.02 |
| Cc1ccc(/C=C/C=O)cc1 | Torsin-1A-interacting protein 1 (Homo sapiens) (UniProt Q5JTV8) | -0.0785 |
| CC(=O)n1cc(C(O)C2C=CC3C(=O)NC(=O)C3N2Nc2ccccn2)c2ccccc21 (stereo not given) | Torsin-1A-interacting protein 1 (Homo sapiens) (UniProt Q5JTV8) | -0.19 |

Could you now consider this next molecule?
Query :: Give composite z-score for the following molecule: [N-]=[N+]=Nc1ccccc1[C@H]1OC(c2ccc(OCCCO)cc2)=N[C@@]1(Cc1ccccc1)C(=O)N1CCOCC1
Result :: 1.32
